Reference source for all entries: patent US20220064302A1

system.name: T1, human PD-1 (soluble PD-1 protein, R&D Systems) (human, UniProt Q15116 25-170, limits assumed)
T1 construct: the kinetics paragraphs say only 'PD-1' / 'antigen'; also called hPD-1; soluble PD-1 immunogen
assay.method.text: array SPR (Carterra), mAb captured, PD-1 as analyte
Task for the reader: assign each of the following binders its reported koff.
Answers are plain numbers, in s⁻¹.

Some entries whose results are on file:
binder="A6 (antibody, V domains shown, Tested as full-length mAb expressed in CHO cells; also called antibody A6; L6H6) VH: QVQLVESGGGVVQPGRSLRLSCAASGFTFSSYGMHWVRQAPGKGLEWVAVIWYDGSNKYYADSVKGRFTISRDNSKNTLYLQMNSLRAEDTAVYYCAGGGNYWGDFWGQGTLVTVSS VL: DIQMTQSPSSLSASVGDRVTITCRASQGIRNDLGWYQQKPGKAPKRLLYAASNLQLGVPSRFSGSGSETEFTLTISSLQPEDFATYYCLQHNSYPWTFGQGTKVEIKR" unit_text=s⁻¹ measured_value=0.00086
binder="A3 (antibody, V domains shown, Tested as full-length mAb expressed in CHO cells; also called antibody A3; L3H3) VH: QVQLVESGGGEVQPGRSLRLSCAASGFTFSDYGMHWVRQAPGKGLEWVAVIWYDGSNKYYADSVKGRFTISRDNSKNTLYLQMNSLRAEDTAVYYCAGGGSYWGDYWGQGTLVTVSS VL: DIQMTQSPSSLSASVGDRVTITCRASQGIRNELGWYQQKPGKAPKRLIYAASSLQSGVPSRFSGSGSGTEFTLTISSLQPEDFATYYCLQHYIYPWTFGQGTKVEIKR" unit_text=s⁻¹ measured_value=0.0024

Moving on to another binder below.
Need koff of A9 (antibody, V domains shown, Tested as full-length mAb expressed in CHO cells; also called antibody A9; L9H9) VH: QVQLVESGGGVVQPGRSLRLSCAASGFTFSNYGMHWVRQAPGKGLEWVAVIWYDGTNKFYADSVKGRFTISRDNSKNTLYLQMNSLRAEDTAVYYCATNSDDYWGQGTLVTVSS VL: AIQMTQSPSSLSASVGDRVTITCRASQDIRNDLGWYQQKPGKAPKLLIYAASLLRSGVPSRFSGSGSGTDFTLTISSLQPEDFATYYCLQDNNYPRTFGQGTKVEIK , thanks. 0.00079
